Kindly state relative integration efficiency (log2) for each of the entries shown.
# Test system: VchCAST RNA-guided transposition machinery (E. coli BL21(DE3) host, lacZ target)
# assayName: relative integration efficiency (T-RL orientation) vs wild-type transposon end (log2 (normalized fold change)); transposon end mutated: left end; higher = more efficient transposition
Give bare numbers.

{"sequenceString": "AATGTTGTTGATGCAACCATAAAGTGATATTTAATAATTATTTATAATCAGCAACTTAACCACAAAACAACCATATATTGATATCTCACACCCACCAACGCCTGGTCGCGGGGGTGTCCGATCTGATTTCAGCAAAACTACTGCAGTAAGAA", "relative integration efficiency (log2)": -2.48}
{"sequenceString": "AATGTTGTTGATGCAACCATAAAGTGATATTTAATAATTATTTCAACCATATATTGATATCTCATAATCAGCAACTTAACCACAAAAACAAAACAACCATAAGTTGATATTTTTGTGAATCGAGTATTTCAGCAAAACTACTGCAGTAAGAA", "relative integration efficiency (log2)": -5.79}
{"sequenceString": "AATGTTGTTGATGCAACCATAAAGTGATATTTAATAATTATTTATAATCAGCAACTTAACCACAAAAGTTGGTATATAACTATAGAGACAAAACAACCATAAGTTGATATTTTTGTGAATCGAGTATTTCAGCAAAACTACTGCAGTAAGAA", "relative integration efficiency (log2)": -2.65}

Let's switch to this sequence now.
Would you mind telling me what relative integration efficiency (log2) value was observed for AATGTTGTTGATGCAACCATAAAGTGATATGGCCGCCGGCGGGCGCCGACTACCAGGCCAACACCCCACCAACGCGCGGTCGCGAGACACCCCACCAACGCCTGGTCGCGGGGGTGTCCGATCTGATTTCAGCAAAACTACTGCAGTAAGAA ? -7.18

Sourced from the supplement of paper PMC10201428
